molecular target: AChE (Electrophorus electricus, UniProt O42275); construct: electric eel, and horse serum were used as source of AChE and BuChE, respectively; from tissue; host or cells: electric eel; experiment: biochemical; type: biochemical; settings: ratio of IC50 values, BuChE over AChE
Sequence (O42275 24-633): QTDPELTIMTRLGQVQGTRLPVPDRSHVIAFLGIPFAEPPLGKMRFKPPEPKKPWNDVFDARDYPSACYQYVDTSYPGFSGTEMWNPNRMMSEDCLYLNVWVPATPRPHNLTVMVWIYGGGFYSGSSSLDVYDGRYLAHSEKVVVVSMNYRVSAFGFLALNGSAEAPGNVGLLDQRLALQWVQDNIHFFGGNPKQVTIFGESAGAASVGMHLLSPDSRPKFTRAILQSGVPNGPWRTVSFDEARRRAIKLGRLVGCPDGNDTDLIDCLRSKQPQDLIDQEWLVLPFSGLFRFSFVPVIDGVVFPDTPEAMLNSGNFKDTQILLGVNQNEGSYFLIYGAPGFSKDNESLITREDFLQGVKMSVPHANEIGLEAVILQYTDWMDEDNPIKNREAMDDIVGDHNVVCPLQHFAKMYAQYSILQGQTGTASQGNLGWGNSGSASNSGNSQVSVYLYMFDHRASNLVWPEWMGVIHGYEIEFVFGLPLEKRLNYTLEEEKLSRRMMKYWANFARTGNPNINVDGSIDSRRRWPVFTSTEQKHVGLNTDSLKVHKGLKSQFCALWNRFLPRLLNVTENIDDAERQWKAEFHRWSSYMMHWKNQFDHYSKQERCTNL
reported_metric: Selectivity for AChE

O=c1oc2ccccc2cc1-c1nn(CN(c2ccccc2)c2ccccc2)c(=S)o1 [Compound 11g] = 0.47
O=c1oc2ccccc2cc1-c1nn(CNc2cccc(Cl)c2)c(=S)o1 [Compound 11e] = 0.012
C/C(=N\Nc1nc(-c2cc3ccccc3oc2=O)cs1)c1ccc(F)cc1 [Compound 6g] = 0.77
COc1ccc(/C(C)=N/Nc2nc(-c3cc4ccccc4oc3=O)cs2)cc1F [Compound 6i] = 9.44
CCCCNCn1nc(-c2cc3ccccc3oc2=O)oc1=S [Compound 11b] = 0.081
CN(C)C(=O)Oc1cccc([N+](C)(C)C)c1 [Neostigmine, reference compound] = 0.57
O=c1oc2ccccc2cc1-c1nn(CNc2ccc(Cl)cc2)c(=S)o1 [Compound 11f] = 0.65
CC(=NNc1nc(-c2cc3ccccc3oc2=O)cs1)c1cccc(N)c1 [Compound 6b] = 35.8
C/C(=N\Nc1nc(-c2cc3ccccc3oc2=O)cs1)c1ccccc1 [Compound 6a] = 1.93
C/C(=N\Nc1nc(-c2cc3ccccc3oc2=O)cs1)c1ccccc1F [Compound 6f] = 1.39
O=c1oc2ccccc2cc1-c1nn(CNc2ccccc2Cl)c(=S)o1 [Compound 11d] = 0.20
O=c1oc2ccccc2cc1-c1csc(NN=C(c2ccccc2)c2ccccc2)n1 [Compound 6n] = 1.94
CNCn1nc(-c2cc3ccccc3oc2=O)oc1=S [Compound 11a] = 0.056
COc1ccc(/C(C)=N/Nc2nc(-c3cc4ccccc4oc3=O)cs2)cc1I [Compound 6l] = 2.32
O=c1oc2ccccc2cc1-c1nn(CN2CCOCC2)c(=S)o1 [Compound 11h] = 1.09
C/C(=N\Nc1nc(-c2cc3ccccc3oc2=O)cs1)c1ccc(Cl)cc1N [Compound 6m] = 1.63
COc1ccc(C(C)=NNc2nc(-c3cc4ccccc4oc3=O)cs2)cc1 [Compound 6h] = 17.8
C/C(=N\Nc1nc(-c2cc3ccccc3oc2=O)cs1)c1cc2ccccc2oc1=O [Compound 6o] = 2.28

---

Molecular target: BuChE (Equus caballus, UniProt P81908)
Construct: electric eel, and horse serum were used as source of AChE and BuChE, respectively; from tissue; host or cells: horse serum
Sequence (P81908 whole entry): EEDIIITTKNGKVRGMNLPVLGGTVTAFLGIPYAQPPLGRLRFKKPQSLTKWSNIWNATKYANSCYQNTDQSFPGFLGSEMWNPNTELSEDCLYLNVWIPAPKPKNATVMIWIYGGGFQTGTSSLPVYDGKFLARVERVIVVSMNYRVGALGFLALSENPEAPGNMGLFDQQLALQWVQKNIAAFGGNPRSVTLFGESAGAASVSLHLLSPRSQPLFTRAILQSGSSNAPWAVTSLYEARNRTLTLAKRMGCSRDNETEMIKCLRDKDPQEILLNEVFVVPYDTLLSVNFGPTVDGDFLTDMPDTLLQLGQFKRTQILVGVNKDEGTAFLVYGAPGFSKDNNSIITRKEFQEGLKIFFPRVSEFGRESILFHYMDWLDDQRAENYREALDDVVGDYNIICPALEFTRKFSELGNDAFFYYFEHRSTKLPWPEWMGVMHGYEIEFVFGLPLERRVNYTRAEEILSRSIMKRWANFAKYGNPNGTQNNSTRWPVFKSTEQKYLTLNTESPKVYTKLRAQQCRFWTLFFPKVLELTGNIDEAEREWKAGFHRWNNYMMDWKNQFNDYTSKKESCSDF
Test: biochemical
Format: biochemical
Experimental: The target compounds, coumarinyl thiazoles 6(a–o) and coumarinyl oxadiazoles 11(a–h), were screened for their inhibitory activity against AChE and BuChE by Ellman's method. For the determination of cholinesterase inhibition, electric eel, and horse serum were used as source of AChE and BuChE, respectively. […] The compounds with 1 Mm concentration were prepared in DMSO. Assay was carried out in 96 well-plate in triplicates. […]
reported_metric: IC50

CN(C)C(=O)Oc1cccc([N+](C)(C)C)c1 [Neostigmine, reference compound] = 16.1 µM

---

target: AChE (Electrophorus electricus, UniProt O42275); construct: electric eel, and horse serum were used as source of AChE and BuChE, respectively; from tissue; host or cells: electric eel; assay: biochemical; format: biochemical; conditions: electric eel AChE; Ellman's method; SEM of three experiments
The label is MET for IC50 below 10 µM and NOT MET for IC50 equal to or exceeding 10 µM.

O=c1oc2ccccc2cc1-c1nn(CNc2ccccc2Cl)c(=S)o1 [Compound 11d] = NOT MET
COc1cc(C(C)=NNc2nc(-c3cc4ccccc4oc3=O)cs2)ccc1O [Compound 6k] = MET
C/C(=N\Nc1nc(-c2cc3ccccc3oc2=O)cs1)c1ccccc1F [Compound 6f] = NOT MET
C/C(=N\Nc1nc(-c2cc3ccccc3oc2=O)cs1)c1ccc(F)cc1 [Compound 6g] = NOT MET
CN(C)C(=O)Oc1cccc([N+](C)(C)C)c1 [Neostigmine, reference compound] = NOT MET
O=c1oc2ccccc2cc1-c1nn(CN(c2ccccc2)c2ccccc2)c(=S)o1 [Compound 11g] = MET
C/C(=N\Nc1nc(-c2cc3ccccc3oc2=O)cs1)c1ccc(Cl)cc1N [Compound 6m] = NOT MET
COc1ccc(/C(C)=N/Nc2nc(-c3cc4ccccc4oc3=O)cs2)cc1F [Compound 6i] = MET
COc1ccc(C(C)=NNc2nc(-c3cc4ccccc4oc3=O)cs2)cc1 [Compound 6h] = MET
